Data provenance is patent US10538498B2.

- System tested: human recombinant HDAC6 (Homo sapiens)
- Construct: purchased Calbiochem 382180
- Procedure summary: HDAC6 enzyme activity inhibition assay (HDAC Fluorimetric Drug Discovery Kit)
- Type: biochemical
- Recorded conditions: same protocol as the HDAC1 enzyme activity test
Measured metric: IC50
Express the reported value numerically, then name its unit.

{"columns": ["Compound", "Result"],
 "data": [
  ["O=C(OCCCS(=O)(=O)N(Cc1ccc(-c2nnc(C(F)F)o2)cc1)c1ccccc1)C(F)F", "75.5 nM"]
]}

Task item: Value lookup for IC50; key = Cn1c(=O)n(C)c2cc(N(Cc3ccc(-c4nnc(C(F)F)o4)cc3)S(C)(=O)=O)ccc21
Reply: 231 nM

Task item: Look up IC50 for this compound: CCS(=O)(=O)N(Cc1ccc(-c2nnc(C(F)F)o2)cn1)c1ccccc1
Reply: 12 nM

Task item: Value lookup for IC50; key = Cc1cccc(N(Cc2ccc(-c3nnc(C(F)F)o3)cn2)S(=O)(=O)C2CCN([C@H]3CC[C@@H](F)CC3)CC2)c1
Reply: 46.6 nM

Task item: Sample O=S1(=O)CCC(S(=O)(=O)N(Cc2ccc(-c3nnc(C(F)F)o3)cn2)c2ccccc2)CC1 — what was its IC50?
Reply: 10 nM

Task item: # query: IC50 of entry O=S(=O)(CCN1CCCC1)N(Cc1ccc(-c2nnc(C(F)F)o2)cc1)c1ccccc1
Reply: 61 nM

Task item: Give the measured IC50 of O=S(=O)(CCN1CC[C@@H](F)C1)N(Cc1ccc(-c2nnc(C(F)F)o2)cc1)c1ccccc1 .
Reply: 105 nM

Task item: What value of IC50 has been reported for the following compound? CS(=O)(=O)NCc1ccc(-c2nnc(C(F)(F)F)o2)cc1
Reply: 2540 nM

----------
// reported pIC50 for each item listed
- System tested: human recombinant HDAC1 (Homo sapiens)
- Sequence (Q13547 whole entry): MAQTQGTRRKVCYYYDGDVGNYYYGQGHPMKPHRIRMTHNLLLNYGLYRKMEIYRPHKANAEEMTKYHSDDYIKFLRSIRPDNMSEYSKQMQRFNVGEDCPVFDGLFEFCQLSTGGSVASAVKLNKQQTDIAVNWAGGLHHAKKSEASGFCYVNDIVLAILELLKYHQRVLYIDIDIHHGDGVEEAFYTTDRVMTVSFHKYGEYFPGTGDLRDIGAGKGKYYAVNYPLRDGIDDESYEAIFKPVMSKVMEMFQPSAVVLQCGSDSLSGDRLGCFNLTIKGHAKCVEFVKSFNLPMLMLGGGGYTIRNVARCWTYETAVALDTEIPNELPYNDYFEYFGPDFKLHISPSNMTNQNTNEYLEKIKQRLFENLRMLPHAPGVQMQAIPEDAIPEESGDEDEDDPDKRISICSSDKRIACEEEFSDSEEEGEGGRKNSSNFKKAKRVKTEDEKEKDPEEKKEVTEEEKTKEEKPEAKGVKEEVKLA
- Procedure summary: HDAC1 enzyme activity inhibition assay (HDAC Fluorimetric Drug Discovery Kit)
- Recorded conditions: 0.3 μg enzyme, 10 μM substrate, 30° C., 60 minutes
pIC50 here is simply -log10 of the concentration when that concentration is written in mol/L.

Study these solved cases before continuing.
{"columns": ["Compound smiles", "Numeric readout"],
 "data": [
  ["CCS(=O)(=O)N(Cc1ccc(-c2nnc(C(F)F)o2)cn1)c1cc(C)cc(Cl)c1", 4.30],
  ["CS(=O)(=O)N(Cc1ccc(-c2nnc(C(F)(F)F)o2)cc1F)c1cccnc1", 4.32],
  ["CN1CC(N2CCC(S(=O)(=O)N(Cc3ccc(-c4nnc(C(F)F)o4)cc3F)c3ccc(F)c(Cl)c3)CC2)C1", 4.57]
]}

Now consider the entry below.
Task item: Param item = CS(=O)(=O)N1CCN(CCCS(=O)(=O)N(Cc2ccc(-c3nnc(C(F)F)o3)cc2)c2ccccc2)CC1 ; retrieve measured pIC50.
Reply: 3.30

----------
- System tested: human recombinant HDAC6 (Homo sapiens, UniProt Q9UBN7)
- Construct: purchased Calbiochem 382180
- Sequence (Q9UBN7 1-1215): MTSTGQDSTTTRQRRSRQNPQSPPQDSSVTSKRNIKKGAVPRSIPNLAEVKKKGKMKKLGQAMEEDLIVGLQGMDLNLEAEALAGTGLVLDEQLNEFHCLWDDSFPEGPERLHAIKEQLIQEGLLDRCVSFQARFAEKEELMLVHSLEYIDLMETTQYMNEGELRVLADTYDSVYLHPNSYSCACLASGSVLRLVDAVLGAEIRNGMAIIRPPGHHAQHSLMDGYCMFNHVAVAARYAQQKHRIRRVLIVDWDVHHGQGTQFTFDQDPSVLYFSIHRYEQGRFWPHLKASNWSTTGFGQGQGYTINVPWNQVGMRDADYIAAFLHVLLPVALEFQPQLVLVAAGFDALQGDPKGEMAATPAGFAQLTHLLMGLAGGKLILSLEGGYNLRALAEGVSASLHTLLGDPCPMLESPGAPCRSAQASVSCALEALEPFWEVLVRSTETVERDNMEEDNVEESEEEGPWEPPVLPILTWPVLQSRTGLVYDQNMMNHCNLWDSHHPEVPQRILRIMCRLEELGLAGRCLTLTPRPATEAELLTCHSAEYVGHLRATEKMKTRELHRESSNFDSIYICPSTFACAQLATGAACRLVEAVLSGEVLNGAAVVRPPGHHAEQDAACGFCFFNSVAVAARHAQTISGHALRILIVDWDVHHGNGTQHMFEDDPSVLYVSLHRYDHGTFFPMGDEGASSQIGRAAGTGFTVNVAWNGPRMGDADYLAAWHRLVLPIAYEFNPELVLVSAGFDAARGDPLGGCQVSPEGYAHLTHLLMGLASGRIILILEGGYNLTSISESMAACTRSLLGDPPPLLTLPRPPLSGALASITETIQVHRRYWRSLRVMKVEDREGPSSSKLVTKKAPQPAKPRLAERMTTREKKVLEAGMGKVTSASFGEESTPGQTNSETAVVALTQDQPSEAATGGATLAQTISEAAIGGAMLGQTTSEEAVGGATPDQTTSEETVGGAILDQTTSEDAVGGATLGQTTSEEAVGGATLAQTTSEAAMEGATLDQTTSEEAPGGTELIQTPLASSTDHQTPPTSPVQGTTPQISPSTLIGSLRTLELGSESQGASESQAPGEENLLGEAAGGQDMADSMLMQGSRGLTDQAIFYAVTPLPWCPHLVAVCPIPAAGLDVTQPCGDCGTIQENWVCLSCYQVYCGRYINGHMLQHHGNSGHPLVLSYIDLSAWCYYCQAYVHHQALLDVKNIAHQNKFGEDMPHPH
- Procedure summary: HDAC6 enzyme activity inhibition assay (HDAC Fluorimetric Drug Discovery Kit)
- Assay type: biochemical
- Recorded conditions: HDAC1 vs HDAC6
- Experimental: In order to examine the HDAC6 selectivity of the compounds of formula I of the present invention by HDAC1 and HDAC6 enzymatic activity inhibition assays, an experiment was performed using a conventional substance as a control. HDAC enzyme activity was measured using a HDAC Fluorimetric Drug Discovery Kit (BML-AK511, 516, Enzo Life Science). […] Based on the resulting values, each IC50 value was calculated using GraphPad Prism4.0 program.
Measured HDAC6 selectivity (fold) by item
Answer in fold, number only, no unit symbol.

Answered examples (3):
{"columns": ["Molecule", "Unit info", "Numeric readout"],
 "data": [
  ["CS(=O)(=O)N(Cc1ccc(-c2nnc(C(F)F)o2)cn1)c1ccc(F)c(Cl)c1 [Compound 11433]", "fold", 8333],
  ["O=S(=O)(c1cccnc1)N(Cc1ccc(-c2nnc(C(F)F)o2)cc1)c1ccccc1 [Compound 11152]", "fold", 1724],
  ["CS(=O)(=O)N1CCC(S(=O)(=O)N(Cc2ccc(-c3nnc(C(F)F)o3)cn2)c2ccccc2)CC1 [Compound 11426]", "fold", 7692]
]}

Task item: Consider the molecule shown here: O=S(=O)(C1CCCCC1)N(Cc1ccc(-c2nnc(C(F)F)o2)cc1F)c1ccccc1 [Compound 11229] What is its recorded HDAC6 selectivity (fold)?
Reply: 1176
